# TARGET_SYSTEM: T1, mouse MET ECD (mouse, UniProt P16056 25-931)
# T1 construct: range 1-931; recombinant ECD; also called mMET; mouse MET extracellular domain
# T1 sequence (P16056 25-931 limits assumed, form in doubt): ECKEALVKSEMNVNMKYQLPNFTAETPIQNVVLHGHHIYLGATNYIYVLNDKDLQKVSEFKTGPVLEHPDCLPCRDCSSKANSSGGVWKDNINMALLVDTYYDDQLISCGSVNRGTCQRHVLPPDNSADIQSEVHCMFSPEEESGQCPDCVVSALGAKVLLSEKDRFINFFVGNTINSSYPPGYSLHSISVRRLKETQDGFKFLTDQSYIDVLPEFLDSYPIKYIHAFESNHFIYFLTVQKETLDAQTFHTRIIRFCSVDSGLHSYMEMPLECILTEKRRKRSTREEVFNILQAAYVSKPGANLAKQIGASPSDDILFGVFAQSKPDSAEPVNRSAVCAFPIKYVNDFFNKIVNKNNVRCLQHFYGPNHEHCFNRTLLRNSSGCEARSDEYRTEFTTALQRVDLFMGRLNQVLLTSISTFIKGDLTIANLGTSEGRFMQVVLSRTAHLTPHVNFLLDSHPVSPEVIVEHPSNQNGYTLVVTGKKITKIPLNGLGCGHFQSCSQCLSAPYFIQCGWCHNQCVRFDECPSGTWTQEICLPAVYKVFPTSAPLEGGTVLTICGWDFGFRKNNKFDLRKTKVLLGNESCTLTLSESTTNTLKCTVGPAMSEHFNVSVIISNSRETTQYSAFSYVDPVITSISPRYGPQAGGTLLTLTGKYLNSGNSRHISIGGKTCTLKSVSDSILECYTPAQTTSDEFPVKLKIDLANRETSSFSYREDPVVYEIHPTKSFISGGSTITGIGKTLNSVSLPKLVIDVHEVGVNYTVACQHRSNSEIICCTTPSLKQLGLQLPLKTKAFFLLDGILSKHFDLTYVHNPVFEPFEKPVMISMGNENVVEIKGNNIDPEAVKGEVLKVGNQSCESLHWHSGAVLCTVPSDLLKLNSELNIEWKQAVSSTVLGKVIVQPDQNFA
# ASSAY_METHOD_TEXT: ELISA: MET ECD immobilized (100 ng/well), mAb in human IgG1/lambda format in solution (0-40 nM), HRP anti-human Fc
Here the recorded EC50 (read off the curve) is given for each entry.
ASSAY_ENDPOINT: EC50 (read off the curve)

1) 71D4 llama-human chimeric mAb (human IgG1/lambda) (antibody, V domains shown) VH: ELQLVESGGGLVQPGGSLRLSCAASGFTFSGYGMSWVRQAPGKGLEWVSDINSGGGSTSYADSVKGRFTISRDNAKNTLYLQMNSLKPEDTAVYYCAKDMRLYLARYNDYEAWDYWGQGTQVTVSS VL: SSALTQPSALSVTLGQTAKITCQGGSLGSSYAHWYQQKPGQAPVLVIYDDDSRPSGIPERFSGSSSGGTATLTISGAQAEDEGDYYCQSADSSGNAAVFGGGTHLTVLQ
~200 pM
2) 71A3 llama-human chimeric mAb (human IgG1/lambda) (antibody, V domains shown) VH: EVQLVESGGGLVQPGGSLRLSCAASGFSFKDYDITWVRQAPGKGLEWVSTITSRSGSTSYVDSVKGRFTISGDNAKNTLYLQMNSLKPEDTAVYYCAKVYATTWDVGPLGYGMDYWGKGTLVTVSS VL: SYELTQPSALSVTLGQTAKITCQGGSLGSSYAHWYQQKPGQAPVLVIYDDDSRPSGIPERFSGSSSGGTATLTISGAQAEDEGDYYCQSADSSGNAAVFGGGTHLTVLQ
~70 pM
3) 76H10 llama-human chimeric mAb (human IgG1/lambda) (antibody, V domains shown) VH: QLQLVESGGGLVQPGGSLRVSCTASGFTFNTYYMTWVRQAPGKGLEWVSDINSGGGTYYADSVKGRFTISRDNAKNTLYLQMNSLKPEDTALYYCVRVRIWPVGYDYWGQGTQVTVSS VL: QAVVTQEPSLSVSPGGTVTLTCGLSSGSVTTSNYPGWFQQTPGQAPRTLIYNTNNRHSGVPSRFSGSISGNKAALTITGAQPEDEADYYCSLYTGSYTTVFGGGTHLTVLQ
~30 pM
4) 71C3 llama-human chimeric mAb (human IgG1/lambda) (antibody, V domains shown) VH: QLQLVESGGGLVQPGGSLRLSCAASGFTFSSHAMSWVRQAPGKGLEWVSAINSGGGSTSYADSVKGRFTISRDNAKNTLYLQMNSLKPEDTAVYYCAKELRFDLARYTDYEAWDYWGQGTQVTVSS VL: SYELTQPSALSVTLGQTAKITCQGGSLGSSYAHWYQQKPGQAPVLVIYDDDSRPSGIPERFSGSSSGGTATLTISGAQAEDEGDYYCQSADSSGNAAVFGGGTHLTVLQ
~100 pM
